Test: water/1-octanol partition coefficients (logD) of 68Ga-labeled compounds, γ-counting
Format: physicochemical
Conditions: 68Ga-labeled compound; 1-octanol / phosphate buffer 0.05 M, pH 7.4; read-out: logD
Description: The mixtures were vigorously shaken for 5 min on a vibrating plate. After subsequent centrifugation at 13,000 rpm for 5 min, 125 µL was taken from each phase and measured in a γ-counter. The logD values were calculated from three or four independent experiments, each performed in triplicate. For 18, the logD was determined by semipreparative HPLC. […] The logD was determined by three separate measurements, each experiment performed in triplicate.
readout.label: logD
Keep it simple and answer with nothing but the number.

Task: Sample NC(=O)C(CS)NC(=O)CNC(=O)CCC(C(=O)O)N1CCN(CC(=O)O)CCN(CC(=O)O)CC1 (stereo not drawn) [Compound 19, NH2-Cys-Gly-NODA-GA] — what was its logD?
Result: -3.35
